TARGET_OR_SYSTEM: Phosphatidylinositol 4,5-bisphosphate 3-kinase catalytic subunit alpha isoform (Homo sapiens)
Sequence (P42336 whole entry, the tested form may be a part, canonical isoform): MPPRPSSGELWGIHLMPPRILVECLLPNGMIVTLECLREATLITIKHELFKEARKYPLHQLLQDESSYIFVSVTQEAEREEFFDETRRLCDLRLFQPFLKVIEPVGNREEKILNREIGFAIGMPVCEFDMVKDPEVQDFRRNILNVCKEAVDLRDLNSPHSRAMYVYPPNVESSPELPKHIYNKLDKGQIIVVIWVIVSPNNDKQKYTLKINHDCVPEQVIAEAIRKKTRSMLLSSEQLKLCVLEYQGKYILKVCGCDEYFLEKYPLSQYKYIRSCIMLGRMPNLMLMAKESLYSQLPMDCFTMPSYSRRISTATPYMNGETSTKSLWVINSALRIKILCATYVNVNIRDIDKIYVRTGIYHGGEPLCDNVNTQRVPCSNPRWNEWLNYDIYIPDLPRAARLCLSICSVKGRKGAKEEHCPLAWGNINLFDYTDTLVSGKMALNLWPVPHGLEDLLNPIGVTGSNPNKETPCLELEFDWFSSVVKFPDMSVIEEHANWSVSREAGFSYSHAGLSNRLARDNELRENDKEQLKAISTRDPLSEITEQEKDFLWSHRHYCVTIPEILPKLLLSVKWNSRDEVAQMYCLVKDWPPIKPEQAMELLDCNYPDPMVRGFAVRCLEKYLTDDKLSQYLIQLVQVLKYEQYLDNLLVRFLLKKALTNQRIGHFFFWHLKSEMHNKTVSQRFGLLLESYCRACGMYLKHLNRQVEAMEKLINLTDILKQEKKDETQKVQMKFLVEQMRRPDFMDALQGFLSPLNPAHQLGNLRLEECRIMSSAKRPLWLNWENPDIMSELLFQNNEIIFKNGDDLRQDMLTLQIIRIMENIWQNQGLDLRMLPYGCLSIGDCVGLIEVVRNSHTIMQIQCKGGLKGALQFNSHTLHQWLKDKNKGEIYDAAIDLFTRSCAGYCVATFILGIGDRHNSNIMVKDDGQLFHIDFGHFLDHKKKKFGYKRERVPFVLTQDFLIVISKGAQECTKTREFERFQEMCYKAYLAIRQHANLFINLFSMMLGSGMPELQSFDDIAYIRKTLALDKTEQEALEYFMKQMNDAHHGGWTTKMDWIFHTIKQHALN
ASSAY_DETAILS: Inhibition of PI3Kalpha catalytic domain (unknown origin) using PIP2 liposomes as substrate in presence of biotin-labeled PIP3 and GST-GRP1-PH by streptavidin-HRP based assays
QUANTITY_NAME: IC50 (µM)
One number for each entry, in µM.

Noted for "Cc1nc2nc(Sc3ccccc3)cnc2cc1NC(=O)Nc1ccccc1" : its IC50 reads 26

###

Can you tell me Cmax for the items I'm about to list?
ASSAY_DETAILS: Cmax in NOD/SCID mouse at 0.5 mg/kg, ip administered as single dose by LC-MS/MS method
Type: ADME, organism-based
Design: dose 0.5 mg/kg, route intraperitoneal
CONDITION_SUMMARY: in vivo
Give bare numbers, in nM.

SMILES_TEXT: Cc1nc2nc(Sc3ccccc3)cnc2cc1NC(=O)Nc1ccccc1
Cmax [nM]: 820

# compound "Cc1nc2nc(Sc3ccccc3)cnc2cc1NC(=O)c1ccccc1" ; its Cmax = 520
